Biological target: Recombinant N-terminal GST tag full-length human HDAC8 (Homo sapiens, UniProt Q9BY41)
Construct: Recombinant N-terminal GST tag full-length human HDAC8
Test: HDAC8 probe binding assay, time resolved fluorescence (TRF) format
Conditions: compounds grouped by IC50 range (Table 2)
pIC50: −log10 of the molar value.
Measurement Name: pIC50

# annotated cases, reported pIC50 shown
| Molecule | Result Value |
| --- | --- |
| CC(C)n1c(CN2C(=O)COc3ccc(C(=O)NO)cc32)nc2ccccc21 | < 6.00 |
| COc1ccc(CN2C(=O)COc3ccc(C(=O)NO)cc32)c(Cl)c1 | ≥ 7.60 |
| COc1ccc(CN2C(=O)OCc3ccc(C(=O)NO)cc32)cc1 | ≥ 7.60 |
| O=C(NO)c1ccc2c(c1)N(Cc1nc(-c3ccccc3)co1)C(=O)CO2 | ≥ 7.60 |

Attention now shifts to the item below.
Look at this molecule and give its reported pIC50. COc1ccc(CN2C(=O)C(C(C)C)Oc3ccc(C(=O)NO)cc32)cc1 (centres unmarked)
≥ 7.60

* * *

Molecular target: Recombinant N-terminal GST tag full-length human HDAC8 (Homo sapiens, UniProt Q9BY41)
Construct: Recombinant N-terminal GST tag full-length human HDAC8
Sequence (Q9BY41 1-377): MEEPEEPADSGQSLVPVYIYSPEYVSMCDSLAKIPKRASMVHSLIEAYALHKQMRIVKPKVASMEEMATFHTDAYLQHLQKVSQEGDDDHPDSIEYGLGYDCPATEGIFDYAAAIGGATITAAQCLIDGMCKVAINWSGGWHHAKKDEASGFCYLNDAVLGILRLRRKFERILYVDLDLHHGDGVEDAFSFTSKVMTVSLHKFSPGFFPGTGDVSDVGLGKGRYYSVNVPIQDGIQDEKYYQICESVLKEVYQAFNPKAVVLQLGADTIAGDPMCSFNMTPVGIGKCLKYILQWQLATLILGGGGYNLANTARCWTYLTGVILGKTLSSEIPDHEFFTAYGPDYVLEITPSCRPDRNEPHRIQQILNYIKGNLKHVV
Assay: HDAC8 probe binding assay, time resolved fluorescence (TRF) format
Conditions: compounds grouped by IC50 range (Table 2)
pIC50: −log10 of the molar value.
Each item that follows carries a reported pIC50.

| Compound | pIC50 |
| --- | --- |
| O=C(NO)c1ccc2c(c1)N(CCc1ccccc1)C(=O)CO2 | 7.00 to 7.60 |
| O=C(NO)c1ccc2c(c1)N(Cc1ccc(-n3cncn3)cc1)C(=O)CO2 | ≥ 7.60 |
| O=C(NO)c1ccc2c(c1)N(Cc1ccncc1)C(=O)CO2 | 7.00 to 7.60 |
| COc1cc(F)cc(CN2C(=O)COc3ccc(C(=O)NO)cc32)c1 | 7.00 to 7.60 |
| O=C(NO)c1ccc2c(c1)N(Cc1cccc(Oc3ccc(Cl)cc3)c1)C(=O)CO2 | ≥ 7.60 |

Give the measured pIC50 of O=C(NO)c1ccc2c(c1)N(CC1COc3ccccc3O1)C(=O)CO2 (racemic) .
≥ 7.60

// next record O=C(NO)c1ccc2c(c1)N(Cc1ccc3cccnc3c1)C(=O)CO2
≥ 7.60

Query O=C(NO)c1ccc2c(c1)N(Cc1cccc(SC(F)(F)F)c1)C(=O)CO2 next
≥ 7.60

Try O=C(NO)c1ccc2c(c1)N(Cc1ccc(SC(F)(F)F)cc1)C(=O)CO2 next.
≥ 7.60

Same read-out for Cc1ccc2nc(CN3C(=O)COc4ccc(C(=O)NO)cc43)oc2c1 ?
≥ 7.60

Now give it for O=C(NO)c1ccc2c(c1)N(Cc1ccc3ccccc3n1)C(=O)CO2 too.
≥ 7.60

Another compound to check: CC(C)Oc1ccc(CN2C(=O)COc3ccc(C(=O)NO)cc32)cc1
≥ 7.60

Item: COc1ccc(CN2C(=O)C(C)(C)Oc3ccc(C(=O)NO)cc32)cc1
7.00 to 7.60

Item: O=C(NO)c1ccc2c(c1)N(Cc1cccc(Oc3ccccc3)c1)C(=O)CO2
≥ 7.60

Okay, and O=C(NO)c1ccc2c(c1)N(Cc1ccc(C(F)(F)F)cc1F)C(=O)CO2 ?
≥ 7.60

Moving on to O=C(NO)c1ccc2c(c1)N(c1ccccc1)C(=O)CO2
7.00 to 7.60

Now give it for O=C(NO)c1ccc2c(c1)N(Cc1ccc(Cl)c(Cl)c1)C(=O)CO2 too.
≥ 7.60

How about this compound: O=C(NO)c1ccc2c(c1)N(Cc1ccc(N3CCCC3)cc1)C(=O)CO2
≥ 7.60

Similarly, CC(c1ccc(S(C)(=O)=O)cc1)N1CCOc2ccc(C(=O)NO)cc21 (centres unmarked) ?
7.00 to 7.60

How about Cc1cccc2nc(CN3C(=O)COc4ccc(C(=O)NO)cc43)cc(=O)n12 ?
7.00 to 7.60

* * *

This listing pairs compounds with measured IC50.
Biological target: Recombinant N-terminal GST tag full-length human HDAC8 (Homo sapiens, UniProt Q9BY41)
Construct: Recombinant N-terminal GST tag full-length human HDAC8
Assay: HDAC8 probe binding assay, time resolved fluorescence (TRF) format
Conditions: compounds grouped by IC50 range (Table 2)

| Compound | Tested Target | IC50 |
| --- | --- | --- |
| COc1ccc(CN2C(=O)C(CCN)Oc3ccc(C(=O)NO)cc32)cc1 (stereo not shown) [Compound I-104] | Recombinant N-terminal GST tag full-length human HDAC8 (Homo sapiens, UniProt Q9BY41) | ≤ 25 nM |

Sample CC(c1c(F)cccc1F)N1C(=O)COc2ccc(C(=O)NO)cc21 (stereo not shown) [Compound I-96] — what was its IC50?
25 to 100 nM

Can you check Cc1nc(-c2ccccc2)sc1CN1C(=O)COc2ccc(C(=O)NO)cc21 [Compound I-76] next?
25 to 100 nM

Same question, COc1ccc(CN2C(=O)C(C(C)(C)C)Oc3ccc(C(=O)NO)cc32)cc1 (stereo not shown) [Compound I-103] this time
≤ 25 nM

Proceed to O=C(NO)c1ccc2c(c1)N(CCOCC1CC1)C(=O)CO2 [Compound I-50]
25 to 100 nM

Consider next the compound O=C(NO)c1ccc2c(c1)N(Cc1cc(Cl)cc(Cl)c1)C(=O)CO2 [Compound I-355] in the same way.
≤ 25 nM

What would you report for O=C(NO)c1ccc2c(c1)N(Cc1cnn(-c3ccccc3)c1)C(=O)CO2 [Compound I-223] ?
≤ 25 nM

// query: CC1(C)Oc2ccc(C(=O)NO)cc2N(Cc2ccc(Cl)cc2F)C1=O [Compound I-161]
≤ 25 nM

Likewise for O=C(NO)c1ccc2c(c1)N(Cc1cn(-c3ccccc3)cn1)C(=O)CO2 [Compound I-205] ?
25 to 100 nM

Again, but for O=C(NO)c1ccc2c(c1)N(Cc1n[nH]c3ccccc13)C(=O)CO2 [Compound I-203]
25 to 100 nM

* * *

Target: Recombinant N-terminal GST tag full-length human HDAC8 (Homo sapiens)
Construct: Recombinant N-terminal GST tag full-length human HDAC8
Experiment: HDAC8 probe binding assay, time resolved fluorescence (TRF) format
Details: compounds grouped by IC50 range (Table 2)
pIC50: −log10 of the molar value.
Reported pIC50 values are given for each entry in this list.

For orientation, consider the following solved cases.
| Smiles Text | pIC50 |
| --- | --- |
| O=C(NO)c1ccc2c(c1)N(Cc1ccc(N3CCCC3=O)cc1)C(=O)CO2 | 7.00 to 7.60 |
| O=C(NO)c1ccc2c(c1)N(Cc1cn3cc(F)ccc3n1)C(=O)CO2 | 7.00 to 7.60 |
| O=C(NO)c1ccc2c(c1)N(Cc1ccc(Oc3ccccc3)cc1)C(=O)CO2 | 7.00 to 7.60 |
| O=C(NO)c1ccc2c(c1)N(Cc1ccc(F)c(Cl)c1)C(=O)CO2 | ≥ 7.60 |
| COc1cccc(CN2C(=O)COc3ccc(C(=O)NO)cc32)c1 | 7.00 to 7.60 |

Please report the recorded pIC50 for O=C(NO)c1ccc2c(c1)N(Cc1nc3ccccc3o1)C(=O)CO2 .
≥ 7.60

Also check O=C(NO)c1cc(F)c2c(c1)N(Cc1ccc(-n3cccn3)cc1)C(=O)CO2
7.00 to 7.60

Now this one: O=C(NO)c1ccc2c(c1)N(Cc1cn3ccccc3n1)C(=O)CO2
7.00 to 7.60

Now consider O=C(NO)c1ccc2c(c1)N(Cc1nc(-c3ccccc3)sc1Cl)C(=O)CO2 .
≥ 7.60

Then this compound: COc1ccc(CN2C(=O)COc3ccc(C(=O)NO)cc32)c(F)c1
≥ 7.60

Could you do the same for N#Cc1cccc(CN2C(=O)COc3ccc(C(=O)NO)cc32)c1 , please?
≥ 7.60

* * *

Biological target: Recombinant N-terminal GST tag full-length human HDAC8 (Homo sapiens, UniProt Q9BY41)
Construct: Recombinant N-terminal GST tag full-length human HDAC8
Sequence (Q9BY41 1-377): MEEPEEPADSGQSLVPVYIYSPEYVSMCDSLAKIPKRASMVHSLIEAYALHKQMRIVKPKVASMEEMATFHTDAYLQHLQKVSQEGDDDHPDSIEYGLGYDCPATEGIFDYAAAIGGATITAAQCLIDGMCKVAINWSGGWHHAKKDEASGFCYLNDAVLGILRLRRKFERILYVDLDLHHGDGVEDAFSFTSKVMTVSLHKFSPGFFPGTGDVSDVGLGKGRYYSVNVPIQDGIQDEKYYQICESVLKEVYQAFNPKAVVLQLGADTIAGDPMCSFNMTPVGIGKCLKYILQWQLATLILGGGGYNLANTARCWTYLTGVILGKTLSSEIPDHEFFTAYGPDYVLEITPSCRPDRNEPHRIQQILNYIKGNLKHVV
Test: HDAC8 probe binding assay, time resolved fluorescence (TRF) format
Conditions: compounds grouped by IC50 range (Table 2)
Procedure: The HDAC8 probe binding assay was performed using a time resolved fluorescence (TRF) assay format. Recombinant N-terminal GST tag full-length human HDAC8 was expressed and purified from baculovirus in Sf9 insect cells (SignalChem, #[…]-1000). […] Plates were incubated for 16 hours at room temperature before time resolved fluorescence was read on the Envision (Excitation at 340 nm, and Emission at 485 nm and 535 nm, Perkin Elmer). […] AveLow=average time resolved fluorescence of no enzyme control (n=32). […]
pIC50: −log10 of the molar value.
Measurement Name: pIC50

| Smiles Text | Measurement Name | Result Value |
| --- | --- | --- |
| COc1ccc2nc(CN3C(=O)COc4ccc(C(=O)NO)cc43)sc2n1 | pIC50 | ≥ 7.60 |
| CC1(C)Oc2ccc(C(=O)NO)cc2N(Cc2cccc(OC(F)(F)F)c2)C1=O | pIC50 | 7.00 to 7.60 |
| CC1(C)Oc2ccc(C(=O)NO)cc2N(Cc2ccc(C(F)(F)F)cc2)C1=O | pIC50 | 7.00 to 7.60 |

Requested field: pIC50. Item: O=C(NO)c1ccc2c(c1)N(Cc1cccc(C(F)(F)F)c1F)C(=O)CO2
7.00 to 7.60
